Task for the reader: assign each of the following binders its reported Internalization %, MCF-7, 0.25 µg/ml, 2 h.
- system.name: T1, human Trop-2 expressed on cell surface (human, UniProt P09758 27-323)
- T1 sequence (looked up): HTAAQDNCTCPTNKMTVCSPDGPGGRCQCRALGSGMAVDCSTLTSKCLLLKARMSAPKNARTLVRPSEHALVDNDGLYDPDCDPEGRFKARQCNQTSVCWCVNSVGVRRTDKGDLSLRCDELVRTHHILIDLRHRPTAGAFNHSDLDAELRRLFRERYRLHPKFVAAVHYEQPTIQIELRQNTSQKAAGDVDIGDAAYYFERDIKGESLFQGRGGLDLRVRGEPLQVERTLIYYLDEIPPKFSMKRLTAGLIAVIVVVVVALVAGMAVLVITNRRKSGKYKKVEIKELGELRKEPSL
- assay.summary: cell-based or functional assay
Give bare numbers, in %.

Consider the worked cases shown below.
65D5 (antibody, V domains shown, Rabbit-derived clone; LEM construct: VH + rabbit IgG CH1 + human IgG1 CH2-CH3) VH: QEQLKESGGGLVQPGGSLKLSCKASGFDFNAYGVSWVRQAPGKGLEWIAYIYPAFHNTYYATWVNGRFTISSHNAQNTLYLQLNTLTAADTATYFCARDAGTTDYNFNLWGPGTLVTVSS VL: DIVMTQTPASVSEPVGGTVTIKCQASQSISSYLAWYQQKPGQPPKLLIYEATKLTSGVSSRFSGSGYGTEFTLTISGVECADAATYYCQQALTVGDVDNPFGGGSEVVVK ... 36
62E3 (antibody, V domains shown, Rabbit-derived clone; LEM construct: VH + rabbit IgG CH1 + human IgG1 CH2-CH3) VH: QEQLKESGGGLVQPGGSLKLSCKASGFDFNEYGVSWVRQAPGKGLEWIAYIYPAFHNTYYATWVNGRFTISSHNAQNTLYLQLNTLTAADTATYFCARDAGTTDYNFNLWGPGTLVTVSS VL: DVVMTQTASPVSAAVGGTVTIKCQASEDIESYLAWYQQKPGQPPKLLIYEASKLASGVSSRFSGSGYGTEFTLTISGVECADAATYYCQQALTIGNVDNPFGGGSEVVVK ... 39

Fill in Internalization %, MCF-7, 0.25 µg/ml, 2 h for each of the 2 binders listed.
1. 72F12 (antibody, V domains shown, Rabbit-derived clone; LEM construct: VH + rabbit IgG CH1 + human IgG1 CH2-CH3) VH: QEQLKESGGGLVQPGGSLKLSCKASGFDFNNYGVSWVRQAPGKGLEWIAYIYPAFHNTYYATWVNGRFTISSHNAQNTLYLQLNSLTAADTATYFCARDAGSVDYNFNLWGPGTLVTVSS VL: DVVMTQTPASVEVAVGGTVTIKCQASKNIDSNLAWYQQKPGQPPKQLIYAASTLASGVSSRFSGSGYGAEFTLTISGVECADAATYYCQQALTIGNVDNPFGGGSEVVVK
2. 5D4-1 (antibody, V domains shown) VH: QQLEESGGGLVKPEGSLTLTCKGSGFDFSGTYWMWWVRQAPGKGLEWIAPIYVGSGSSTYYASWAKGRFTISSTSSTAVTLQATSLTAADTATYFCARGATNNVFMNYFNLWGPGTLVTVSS VL: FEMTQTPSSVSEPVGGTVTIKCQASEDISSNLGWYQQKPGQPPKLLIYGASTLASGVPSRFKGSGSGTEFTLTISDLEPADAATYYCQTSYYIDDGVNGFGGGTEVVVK

[37, 57]
